Molecular target: UniProtKB Q9N6S8
Sequence (Q9N6S8 whole entry): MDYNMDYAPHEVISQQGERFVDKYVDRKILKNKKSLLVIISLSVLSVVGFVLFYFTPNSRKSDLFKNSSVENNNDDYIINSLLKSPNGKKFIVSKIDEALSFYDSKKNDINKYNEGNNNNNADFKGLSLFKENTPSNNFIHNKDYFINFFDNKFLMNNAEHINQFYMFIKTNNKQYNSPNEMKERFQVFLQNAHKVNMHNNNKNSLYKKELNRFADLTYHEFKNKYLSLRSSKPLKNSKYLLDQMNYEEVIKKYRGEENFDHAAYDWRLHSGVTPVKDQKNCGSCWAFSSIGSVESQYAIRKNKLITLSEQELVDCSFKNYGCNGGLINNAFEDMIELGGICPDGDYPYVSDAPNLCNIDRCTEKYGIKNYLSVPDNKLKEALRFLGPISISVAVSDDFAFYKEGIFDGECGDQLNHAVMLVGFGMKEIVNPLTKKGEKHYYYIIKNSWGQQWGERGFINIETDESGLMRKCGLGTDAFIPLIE
Test: Inhibition of Plasmodium falciparum FP2 using Z-Leu-Arg-AMC as substrate preincubated for 30 min followed by substrate addition measured after 30 mins by spectrofluorimetric method
Test Readout: pIC50
pIC50 here is simply -log10 of the concentration when that concentration is written in mol/L.

Answered examples (5):
>  <Molecule>
CCc1nnc(NC(=O)CCc2ccc(S(=O)(=O)Nc3ccc(F)cc3)cc2)s1

>  <Test Readout>
pIC50

>  <Quantitative Readout>
5.15

$$$$
>  <Molecule>
Nc1nc(N)c2cc(NCc3ccc(CCNC(=O)CCc4ccccc4)cc3)ccc2n1

>  <Test Readout>
pIC50

>  <Quantitative Readout>
5.31

$$$$
>  <Molecule>
Nc1nc(N)c2cc(NCc3ccc(CCNC(=O)c4ccc(F)cc4)cc3)ccc2n1

>  <Test Readout>
pIC50

>  <Quantitative Readout>
5.17

$$$$
>  <Molecule>
CC(C)C[C@H](NC(=O)[C@@H]1O[C@H]1C(=O)O)C(=O)NCCCCN=C(N)N

>  <Test Readout>
pIC50

>  <Quantitative Readout>
7.24

$$$$
>  <Molecule>
Nc1nc(N)c2cc(NCc3ccc(CCNC(=O)c4ccc(Cl)cc4F)cc3)ccc2n1

>  <Test Readout>
pIC50

>  <Quantitative Readout>
5.04

$$$$

-- ask Find the recorded pIC50 belonging to Nc1nc(N)c2cc(NCc3ccc(CCNC(=O)C4CCCCC4)cc3)ccc2n1 and report it.
-- reply 5.11

-- ask Requested read-out: pIC50. Entry: CC(C)(C)C1CCC(C(=O)NCCc2ccc(CNc3ccc4nc(N)nc(N)c4c3)cc2)CC1 (configuration not stated)
-- reply 5.13

* * *

Target: Bifunctional dihydrofolate reductase-thymidylate synthase (Plasmodium falciparum K1, UniProt P13922)
Sequence (P13922 whole entry): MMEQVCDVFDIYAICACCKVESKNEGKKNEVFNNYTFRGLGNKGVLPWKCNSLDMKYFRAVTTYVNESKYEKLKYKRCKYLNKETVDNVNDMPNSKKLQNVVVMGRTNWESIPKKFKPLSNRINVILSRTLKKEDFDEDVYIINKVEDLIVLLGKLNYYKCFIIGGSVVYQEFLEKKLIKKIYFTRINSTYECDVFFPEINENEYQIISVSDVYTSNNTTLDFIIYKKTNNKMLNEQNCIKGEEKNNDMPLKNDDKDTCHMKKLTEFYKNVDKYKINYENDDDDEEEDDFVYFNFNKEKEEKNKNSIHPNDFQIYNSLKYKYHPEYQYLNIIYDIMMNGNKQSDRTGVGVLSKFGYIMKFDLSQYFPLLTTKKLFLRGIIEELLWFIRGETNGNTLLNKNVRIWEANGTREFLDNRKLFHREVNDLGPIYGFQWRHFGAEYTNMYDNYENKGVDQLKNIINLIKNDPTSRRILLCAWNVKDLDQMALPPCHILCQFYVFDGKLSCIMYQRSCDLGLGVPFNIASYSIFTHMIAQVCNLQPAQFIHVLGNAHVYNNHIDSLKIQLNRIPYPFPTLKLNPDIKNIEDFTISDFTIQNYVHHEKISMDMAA
Assay: Inhibition of Plasmodium falciparum DHFR
Structures can show the parent of a compound that is named as a salt.
Measured IC50, listed per entry for reference.
I only need the number, in nM, no unit after it.

Solved entries:
>  <Molecule>
O=C(CCc1ccc(S(=O)(=O)NCCc2ccccc2)cc1)Nc1ccc2c(c1)OCCO2

>  <IC50 [nM]>
35500

$$$$
>  <Molecule>
CC1(C)N=C(N)N=C(N)N1OCCCOc1cc(Cl)c(Cl)cc1Cl

>  <IC50 [nM]>
0.57

$$$$
>  <Molecule>
Cc1nc(N)nc(N)c1OCCCOc1cc(Cl)c(Cl)cc1Cl

>  <IC50 [nM]>
229

$$$$
>  <Molecule>
CCc1nnc(NC(=O)CCc2ccc(S(=O)(=O)Nc3ccc(F)cc3)cc2)s1

>  <IC50 [nM]>
6300

$$$$

-- ask Look up IC50: CC1(C)N=C(N)N=C(N)N1c1ccc(Cl)cc1 [CHLORCYCLOGUANIL HYDROCHLORIDE]
-- reply 1.5

-- ask Look up IC50 for this molecule: COc1ccc(OC)c(CNc2ccc3nc(N)nc(N)c3c2Cl)c1
-- reply 0.39

* * *

Molecular target: Bifunctional dihydrofolate reductase-thymidylate synthase (Plasmodium falciparum K1)
Experiment: Inhibition of Plasmodium falciparum DHFR using DHF as substrate preincubated for 15 mins followed DHF addition measured after 15 mins by spectrophotometric method
# maps each entry to its pIC50
As a rule, pIC50 stands for the negative log10 of the concentration, concentration in M.

>  <Compound>
CC(C)(C)C1CCC(C(=O)NCCc2ccc(CNc3ccc4nc(N)nc(N)c4c3)cc2)CC1 (stereo not given)

>  <Test Readout>
pIC50

>  <Quantitative Readout>
6.54

$$$$
>  <Compound>
CCc1nnc(NC(=O)CCc2ccc(S(=O)(=O)Nc3ccc(F)cc3)cc2)s1

>  <Test Readout>
pIC50

>  <Quantitative Readout>
5.20

$$$$
>  <Compound>
Nc1nc(N)c2cc(NCc3ccc(CCNC(=O)C4CCCCC4)cc3)ccc2n1

>  <Test Readout>
pIC50

>  <Quantitative Readout>
6.65

$$$$
>  <Compound>
Nc1nc(N)c2cc(NCc3ccc(CCNC(=O)c4cccs4)cc3)ccc2n1

>  <Test Readout>
pIC50

>  <Quantitative Readout>
7.08

$$$$

Proceeding to the next compound to report its pIC50.
-- ask Could you share what pIC50 was measured for Nc1nc(N)c2cc(NCc3ccc(CCNC(=O)c4ccco4)cc3)ccc2n1 , tested on Bifunctional dihydrofolate reductase-thymidylate synthase (Plasmodium falciparum K1)?
-- reply 6.97

* * *

Molecular target: Bifunctional dihydrofolate reductase-thymidylate synthase (Plasmodium falciparum K1)
Assay: Inhibition of Plasmodium falciparum DHFR at 10 uM using DHF as substrate preincubated for 15 mins followed DHF addition measured after 15 mins by spectrophotometric method
Items are presented alongside their recorded inhibition.
The figure you give is taken to be in %; do not add the unit.

Please review the following examples before continuing.
>  <Compound>
CCc1nnc(NC(=O)CCc2ccc(S(=O)(=O)Nc3ccc(F)cc3)cc2)s1

>  <Unit Spec>
%

>  <inhibition>
59.2

$$$$
>  <Compound>
Nc1nc(N)c2cc(NCc3ccc(CCNC(=O)c4cccc(F)c4)cc3)ccc2n1

>  <Unit Spec>
%

>  <inhibition>
98.5

$$$$
>  <Compound>
Nc1nc(N)c2cc(NCc3ccc(CCNC(=O)c4ccc(C(F)(F)F)cc4)cc3)ccc2n1

>  <Unit Spec>
%

>  <inhibition>
96.4

$$$$
>  <Compound>
Nc1nc(N)c2cc(NCc3ccc(CCNC(=O)c4ccc5c(c4)OCCO5)cc3)ccc2n1

>  <Unit Spec>
%

>  <inhibition>
100

$$$$
>  <Compound>
COc1cccc(C(=O)NCCc2ccc(CNc3ccc4nc(N)nc(N)c4c3)cc2)c1

>  <Unit Spec>
%

>  <inhibition>
96.8

$$$$

-- ask Dear colleague, I am looking for the recorded inhibition of the following compound: Nc1nc(N)c2cc(NCc3ccc(CCNC(=O)c4cccs4)cc3)ccc2n1
-- reply 97.4

-- ask What value of inhibition has been recorded for this entry: Nc1nc(N)c2cc(NCc3ccc(CCNC(=O)Cc4ccccc4)cc3)ccc2n1
-- reply 92.4

* * *

Molecular target: Bifunctional dihydrofolate reductase-thymidylate synthase (Plasmodium falciparum K1, UniProt P13922)
Assay: Inhibition of Plasmodium falciparum DHFR using DHF as substrate preincubated for 15 mins followed DHF addition measured after 15 mins by spectrophotometric method
Test Readout: pIC50
Please express pIC50 as -log10 of the molar concentration.

-- ask Give its pIC50 value. Item: Nc1nc(N)c2cc(NCc3ccc(CCNC(=O)c4ccc(F)cc4)cc3)ccc2n1
-- reply 6.93

-- ask Quick one: pIC50 for Nc1nc(N)c2cc(NCc3ccc(CCNC(=O)c4ccc5c(c4)OCO5)cc3)ccc2n1 ?
-- reply 7.58

-- ask Entry Nc1nc(N)c2cc(NCc3ccc(CCNC(=O)c4ccc([N+](=O)[O-])cc4)cc3)ccc2n1 has what pIC50?
-- reply 7.25

-- ask Would you mind telling me what pIC50 value was observed for COc1ccc(C(=O)NCCc2ccc(CNc3ccc4nc(N)nc(N)c4c3)cc2)cc1 ?
-- reply 6.80

-- ask Given COc1cccc(C(=O)NCCc2ccc(CNc3ccc4nc(N)nc(N)c4c3)cc2)c1 , state its recorded pIC50.
-- reply 7.40

* * *

Test system: Plasmodium falciparum
Assay: Antimalarial activity against mid-ring stage of multidrug-sensitive Plasmodium falciparum 3D7 infected in human O-positive erythrocytes after 72 hrs by SYBR Green I dye-based fluorescence assay
Format: functional, organism-based
Settings: 3D7, 72 h
Test Readout: pIC50
Units for pIC50: none; it is -log10 of a concentration expressed in mol/L.

>  <Smiles Text>
COc1cccc(C(=O)NCCc2ccc(CNc3ccc4nc(N)nc(N)c4c3)cc2)c1

>  <Assayed Target>
Plasmodium falciparum

>  <Test Readout>
pIC50

>  <Quantitative Readout>
7.22

$$$$
>  <Smiles Text>
Nc1nc(N)c2cc(NCc3ccc(CCNC(=O)c4ccc5c(c4)OCO5)cc3)ccc2n1

>  <Assayed Target>
Plasmodium falciparum

>  <Test Readout>
pIC50

>  <Quantitative Readout>
7.10

$$$$
>  <Smiles Text>
Nc1nc(N)c2cc(NCc3ccc(CCNC(=O)c4ccc(F)cc4)cc3)ccc2n1

>  <Assayed Target>
Plasmodium falciparum

>  <Test Readout>
pIC50

>  <Quantitative Readout>
6.41

$$$$

-- ask Give recorded pIC50 with Plasmodium falciparum for the following compound: Nc1nc(N)c2cc(NCc3ccc(CCNC(=O)Cc4ccccc4)cc3)ccc2n1
-- reply 6.57

-- ask // lookup pIC50 | system=Plasmodium falciparum | key= Nc1nc(N)c2cc(NCc3ccc(CCNC(=O)c4cccs4)cc3)ccc2n1
-- reply 7.27

-- ask Could you share what pIC50 was measured for C[C@@H]1CC[C@H]2[C@@H](C)C(=O)O[C@@H]3O[C@@]4(C)CC[C@@H]1[C@]32OO4 , tested on Plasmodium falciparum?
-- reply 8.39

-- ask # value lookup — system Plasmodium falciparum, readout pIC50, item Nc1nc(N)c2cc(NCc3ccc(CCNC(=O)c4ccc([N+](=O)[O-])cc4)cc3)ccc2n1
-- reply 6.98
